# pIC50 per record follows
# Tested on: HT-29
# assayText: Cytotoxicity against human HT-29 cells assessed as reduction in cell viability after 54 hrs by CytoTox-Glo assay
# measurementContext: HT-29, 54 h
pIC50: −log10 of the molar value.

| smilesEntry | pIC50 |
| --- | --- |
| COc1cc(CCc2ccccc2)c(C(=O)O)c(O)c1CC=C(C)C | 4.29 |
| COc1cc(CCc2ccccc2)c(C(=O)O)c(O)c1C/C=C(\C)CCC=C(C)C | 4.52 |
